All figures here come from patent US9481673B2.

- testDetails: Solubility measurement (DMSO solution precipitation method)
- Type: physicochemical
- studyConditions: aqueous buffer, kinetic from dmso stock; (S)-isomers; McIlvaine buffer pH 6.8, 24 h shaking at ambient temperature; read-out: Sol pH 6.8
metric: solubility kinetic at 24 h (µg/mL)
Report the figure in µg/mL without appending any unit label.

Worked examples, 6 compounds total:
CN[C@@H](C)C(=O)Nc1ccc(-c2c(-c3ccc(OC)nc3)nc3cc(C)ccn23)c(C#Cc2ccc3c(C)nccc3c2)n1 [(S)-9] | 2
CN[C@@H](C)C(=O)Nc1ccc(-c2c(-c3cccnc3OC)nc3ccccn23)c(C#Cc2ccc3c(C)nccc3c2)n1 [(S)-16] | 17
CN[C@@H](C)C(=O)Nc1ccc(-c2c(-c3cnn(C)c3)nc3cc(C)ccn23)c(C#Cc2ccc3c(C)nccc3c2)n1 [(S)-3] | 1
CN[C@@H](C)C(=O)Nc1ccc(-c2c(-c3ccnc(C)c3)nc3cc(C)ccn23)c(C#Cc2ccc3c(C)nccc3c2)n1 [(S)-2] | 8
CN[C@@H](C)C(=O)Nc1ccc(-c2c(-c3cccnc3OC)nc3cc(Cl)ccn23)c(C#Cc2ccc3c(C)nccc3c2)n1 [(S)-15] | 20
CN[C@@H](C)C(=O)Nc1ccc(-c2c(-c3ccc(C)nc3)nc3cc(C)ccn23)c(C#Cc2ccc3c(C)nccc3c2)n1 [(S)-6] | 1

Recorded result, CN[C@@H](C)C(=O)Nc1ccc(-c2c(-c3cncn3C)nc3cc(C)ccn23)c(C#Cc2ccc3c(C)nccc3c2)n1 [(S)-4] , solubility kinetic at 24 h: 39

CN[C@@H](C)C(=O)Nc1ccc(-c2c(-c3cccnc3OC)nc3cc(C)ccn23)c(C#Cc2ccc3c(ccc(=O)n3C)c2)n1 [(S)-10] has a reported solubility kinetic at 24 h of 35

In plain terms, CN[C@@H](C)C(=O)Nc1ccc(-c2c(-c3cccnc3OC)nc3cc(C)ccn23)c(C#Cc2ccc3c(C)nccc3c2)n1 [(S)-1] has a documented solubility kinetic at 24 h of 35
